As shown below, each of these compounds has a reported relative viability value.
# Tested on: HCC-15
# Assay: relative viability (nuclei count vs DMSO), 5 days (fraction); higher = more cells survive
# Reported conditions: first compound 4 µM
Experimental readout: relative viability

{"columns": ["Compound", "Experimental result"],
 "data": [
  ["COc1cc(N2CCC(C(N)=O)CC2)ccc1Nc1nc(N)c(Cl)c(Nc2ccccc2S(=O)(=O)C(C)C)n1 [HG-5-88-01] + O=C(c1cc(Cc2n[nH]c(=O)c3ccccc23)ccc1F)N1CCN(C(=O)C2CC2)CC1 [Olaparib] (partner 8 µM)", 0.7],
  ["C[C@@H]1CN(CC(=O)Nc2ccc3c(c2)Cc2cccc(-c4cc(=O)cc(N5CCOCC5)o4)c2S3)C[C@H](C)O1 + COc1cc2c(Oc3ccc(NC(=O)C4(C(=O)Nc5ccc(F)cc5)CC4)cc3F)ccnc2cc1OCCCN1CCOCC1 [Foretinib] (partner 0.25 µM)", 0.73],
  ["Clc1ccc(Nc2nnc(Cc3ccncc3)c3ccccc23)cc1 [Vatalanib] + CCNC(=O)c1noc(-c2cc(C(C)C)c(O)cc2O)c1-c1ccc(CN2CCOCC2)cc1 [Luminespib] (partner 0.01 µM)", 0.235],
  ["C[C@@H]1CN(CC(=O)Nc2ccc3c(c2)Cc2cccc(-c4cc(=O)cc(N5CCOCC5)o4)c2S3)C[C@H](C)O1 + CS(=O)(=O)CCNCc1ccc(-c2ccc3ncnc(Nc4ccc(OCc5cccc(F)c5)c(Cl)c4)c3c2)o1 [Lapatinib] (partner 2 µM)", 0.763]
]}

###

Each record here notes measured relative viability.
# Test system: NCI-H1623
# Assay: relative viability (nuclei count vs DMSO), 5 days (fraction); higher = more cells survive
# Reported conditions: first compound 0.4 µM

{"columns": ["Compound", "relative viability"],
 "data": [
  ["COc1cc(N2CCC(C(N)=O)CC2)ccc1Nc1nc(N)c(Cl)c(Nc2ccccc2S(=O)(=O)C(C)C)n1 [HG-5-88-01] + Cc1cc(Nc2cc(N3CCN(C)CC3)nc(Sc3ccc(NC(=O)C4CC4)cc3)n2)n[nH]1 [Tozasertib] (partner 0.1 µM)", 0.399],
  ["Clc1ccc(Nc2nnc(Cc3ccncc3)c3ccccc23)cc1 [Vatalanib] + COc1cccc2cc(-c3nc([C@H]4CC[C@H](C(=O)O)CC4)n4ncnc(N)c34)[nH]c12 [OSI-027] (partner 0.5 µM)", 0.446],
  ["Clc1ccc(Nc2nnc(Cc3ccncc3)c3ccccc23)cc1 [Vatalanib] + CCNC(=O)c1noc(-c2cc(C(C)C)c(O)cc2O)c1-c1ccc(CN2CCOCC2)cc1 [Luminespib] (partner 0.01 µM)", 0.579],
  ["C[C@@H]1CN(CC(=O)Nc2ccc3c(c2)Cc2cccc(-c4cc(=O)cc(N5CCOCC5)o4)c2S3)C[C@H](C)O1 + Cc1cc(Nc2cc(N3CCN(C)CC3)nc(Sc3ccc(NC(=O)C4CC4)cc3)n2)n[nH]1 [Tozasertib] (partner 0.1 µM)", 0.406],
  ["COc1cc(N2CCC(C(N)=O)CC2)ccc1Nc1nc(N)c(Cl)c(Nc2ccccc2S(=O)(=O)C(C)C)n1 [HG-5-88-01] + COc1cc2c(Oc3ccc(NC(=O)C4(C(=O)Nc5ccc(F)cc5)CC4)cc3F)ccnc2cc1OCCCN1CCOCC1 [Foretinib] (partner 0.25 µM)", 0.845],
  ["C[C@@H]1CN(CC(=O)Nc2ccc3c(c2)Cc2cccc(-c4cc(=O)cc(N5CCOCC5)o4)c2S3)C[C@H](C)O1 + COc1cc2c(Oc3ccc(NC(=O)C4(C(=O)Nc5ccc(F)cc5)CC4)cc3F)ccnc2cc1OCCCN1CCOCC1 [Foretinib] (partner 0.25 µM)", 0.88],
  ["Clc1ccc(Nc2nnc(Cc3ccncc3)c3ccccc23)cc1 [Vatalanib] + COc1cc2c(Oc3ccc(NC(=O)C4(C(=O)Nc5ccc(F)cc5)CC4)cc3F)ccnc2cc1OCCCN1CCOCC1 [Foretinib] (partner 0.25 µM)", 0.794]
]}

###

# System: H3255
# Assay: relative viability (nuclei count vs DMSO), 5 days (fraction); higher = more cells survive
# Reported conditions: first compound 0.8 µM
Experimental readout: relative viability

{"columns": ["Compound", "Target entity", "Experimental result"],
 "data": [
  ["CCCCCCCCCCCC1=C(O)C(=O)C=C(O)C1=O [Embelin] + Nc1nc2[nH]cc(CCc3ccc(C(=O)N[C@@H](CCC(=O)O)C(=O)O)cc3)c2c(=O)[nH]1 [Pemetrexed] (partner 0.2 µM)", "H3255", 0.616],
  ["CCCCCCCCCCCC1=C(O)C(=O)C=C(O)C1=O [Embelin] + O=C(c1cc(Cc2n[nH]c(=O)c3ccccc23)ccc1F)N1CCN(C(=O)C2CC2)CC1 [Olaparib] (partner 8 µM)", "H3255", 0.614],
  ["CCCCCCCCCCCC1=C(O)C(=O)C=C(O)C1=O [Embelin] + CS(=O)(=O)CCNCc1ccc(-c2ccc3ncnc(Nc4ccc(OCc5cccc(F)c5)c(Cl)c4)c3c2)o1 [Lapatinib] (partner 2 µM)", "H3255", 0.281],
  ["CCCCCCCCCCCC1=C(O)C(=O)C=C(O)C1=O [Embelin] + Cc1cc(Nc2cc(N3CCN(C)CC3)nc(Sc3ccc(NC(=O)C4CC4)cc3)n2)n[nH]1 [Tozasertib] (partner 0.1 µM)", "H3255", 0.595],
  ["CCCCCCCCCCCC1=C(O)C(=O)C=C(O)C1=O [Embelin] + O=C(CCCCCCC(=O)Nc1ccccc1)NO [Vorinostat] (partner 1 µM)", "H3255", 0.834]
]}

###

# Tested on: NCI-H2170
# Assay: relative viability (nuclei count vs DMSO), 5 days (fraction); higher = more cells survive
# Reported conditions: first compound 4 µM
We begin with a simple list: items and their reported relative viability.

{"columns": ["Compound", "relative viability"],
 "data": [
  ["C[C@@H]1CN(CC(=O)Nc2ccc3c(c2)Cc2cccc(-c4cc(=O)cc(N5CCOCC5)o4)c2S3)C[C@H](C)O1 + C[C@@H](Oc1cc(-c2cnn(C3CCNCC3)c2)cnc1N)c1c(Cl)ccc(F)c1Cl [Crizotinib] (partner 1 µM)", 1.1],
  ["C[C@@H]1CN(CC(=O)Nc2ccc3c(c2)Cc2cccc(-c4cc(=O)cc(N5CCOCC5)o4)c2S3)C[C@H](C)O1 + O=C(c1cc(Cc2n[nH]c(=O)c3ccccc23)ccc1F)N1CCN(C(=O)C2CC2)CC1 [Olaparib] (partner 8 µM)", 0.523]
]}

###

# Tested on: HCC-827
# Assay: relative viability (nuclei count vs DMSO), 5 days (fraction); higher = more cells survive
# Reported conditions: first compound 0.04 µM
Recorded relative viability, one value per entry.

{"columns": ["Compound", "relative viability"],
 "data": [
  ["COc1cc(N2CCC(C(N)=O)CC2)ccc1Nc1nc(N)c(Cl)c(Nc2ccccc2S(=O)(=O)C(C)C)n1 [HG-5-88-01] + Cc1cc(Nc2cc(N3CCN(C)CC3)nc(Sc3ccc(NC(=O)C4CC4)cc3)n2)n[nH]1 [Tozasertib] (partner 0.1 µM)", 0.475],
  ["COc1cc(N2CCC(C(N)=O)CC2)ccc1Nc1nc(N)c(Cl)c(Nc2ccccc2S(=O)(=O)C(C)C)n1 [HG-5-88-01] + CC1(C)CCC(c2ccc(Cl)cc2)=C(CN2CCN(c3ccc(C(=O)NS(=O)(=O)c4ccc(N[C@H](CCN5CCOCC5)CSc5ccccc5)c(S(=O)(=O)C(F)(F)F)c4)cc3)CC2)C1 [Navitoclax] (partner 0.5 µM)", 0.997],
  ["Clc1ccc(Nc2nnc(Cc3ccncc3)c3ccccc23)cc1 [Vatalanib] + C[C@@H](Oc1cc(-c2cnn(C3CCNCC3)c2)cnc1N)c1c(Cl)ccc(F)c1Cl [Crizotinib] (partner 1 µM)", 0.845],
  ["C[C@@H]1CN(CC(=O)Nc2ccc3c(c2)Cc2cccc(-c4cc(=O)cc(N5CCOCC5)o4)c2S3)C[C@H](C)O1 + CC1(C)CCC(c2ccc(Cl)cc2)=C(CN2CCN(c3ccc(C(=O)NS(=O)(=O)c4ccc(N[C@H](CCN5CCOCC5)CSc5ccccc5)c(S(=O)(=O)C(F)(F)F)c4)cc3)CC2)C1 [Navitoclax] (partner 0.5 µM)", 0.931]
]}

###

# Tested on: NCI-H441
# Assay: relative viability (nuclei count vs DMSO), 5 days (fraction); higher = more cells survive
# Reported conditions: first compound 0.4 µM
Each record here notes measured relative viability.
Experimental readout: relative viability

{"columns": ["Compound", "Experimental result"],
 "data": [
  ["COc1cc(N2CCC(C(N)=O)CC2)ccc1Nc1nc(N)c(Cl)c(Nc2ccccc2S(=O)(=O)C(C)C)n1 [HG-5-88-01] + C[C@@H](Oc1cc(-c2cnn(C3CCNCC3)c2)cnc1N)c1c(Cl)ccc(F)c1Cl [Crizotinib] (partner 1 µM)", 0.554],
  ["COc1cc(N2CCC(C(N)=O)CC2)ccc1Nc1nc(N)c(Cl)c(Nc2ccccc2S(=O)(=O)C(C)C)n1 [HG-5-88-01] + CS(=O)(=O)N1CCN(Cc2cc3nc(-c4cccc5[nH]ncc45)nc(N4CCOCC4)c3s2)CC1 [Pictilisib] (partner 1 µM)", 0.494],
  ["Clc1ccc(Nc2nnc(Cc3ccncc3)c3ccccc23)cc1 [Vatalanib] + COc1cccc2cc(-c3nc([C@H]4CC[C@H](C(=O)O)CC4)n4ncnc(N)c34)[nH]c12 [OSI-027] (partner 0.5 µM)", 0.597],
  ["Clc1ccc(Nc2nnc(Cc3ccncc3)c3ccccc23)cc1 [Vatalanib] + NC(=O)Nc1cc(-c2cccc(F)c2)sc1C(=O)N[C@H]1CCCNC1 [AZD7762] (partner 0.2 µM)", 1.19],
  ["COc1cc(N2CCC(C(N)=O)CC2)ccc1Nc1nc(N)c(Cl)c(Nc2ccccc2S(=O)(=O)C(C)C)n1 [HG-5-88-01] + CC1(C)CCC(c2ccc(Cl)cc2)=C(CN2CCN(c3ccc(C(=O)NS(=O)(=O)c4ccc(N[C@H](CCN5CCOCC5)CSc5ccccc5)c(S(=O)(=O)C(F)(F)F)c4)cc3)CC2)C1 [Navitoclax] (partner 0.5 µM)", 0.714],
  ["Clc1ccc(Nc2nnc(Cc3ccncc3)c3ccccc23)cc1 [Vatalanib] + C[C@]1(O)C[C@@H](c2nc(-c3ccc4ccc(-c5ccccc5)nc4c3)c3c(N)nccn32)C1 [Linsitinib] (partner 1 µM)", 0.583],
  ["COc1cc(N2CCC(C(N)=O)CC2)ccc1Nc1nc(N)c(Cl)c(Nc2ccccc2S(=O)(=O)C(C)C)n1 [HG-5-88-01] + N=C(N)NC(=N)NCCc1ccccc1 [Phenformin] (partner 250 µM)", 0.852],
  ["COc1cc(N2CCC(C(N)=O)CC2)ccc1Nc1nc(N)c(Cl)c(Nc2ccccc2S(=O)(=O)C(C)C)n1 [HG-5-88-01] + O=C(CCCCCCC(=O)Nc1ccccc1)NO [Vorinostat] (partner 1 µM)", 0.678],
  ["C[C@@H]1CN(CC(=O)Nc2ccc3c(c2)Cc2cccc(-c4cc(=O)cc(N5CCOCC5)o4)c2S3)C[C@H](C)O1 + CC(=O)c1c(C)c2cnc(Nc3ccc(N4CCNCC4)cn3)nc2n(C2CCCC2)c1=O [Palbociclib] (partner 0.5 µM)", 0.223],
  ["C[C@@H]1CN(CC(=O)Nc2ccc3c(c2)Cc2cccc(-c4cc(=O)cc(N5CCOCC5)o4)c2S3)C[C@H](C)O1 + CS(=O)(=O)N1CCN(Cc2cc3nc(-c4cccc5[nH]ncc45)nc(N4CCOCC4)c3s2)CC1 [Pictilisib] (partner 1 µM)", 0.43],
  ["Clc1ccc(Nc2nnc(Cc3ccncc3)c3ccccc23)cc1 [Vatalanib] + N=C(N)NC(=N)NCCc1ccccc1 [Phenformin] (partner 250 µM)", 0.849],
  ["Clc1ccc(Nc2nnc(Cc3ccncc3)c3ccccc23)cc1 [Vatalanib] + C[C@@H](Oc1cc(-c2cnn(C3CCNCC3)c2)cnc1N)c1c(Cl)ccc(F)c1Cl [Crizotinib] (partner 1 µM)", 0.72],
  ["C[C@@H]1CN(CC(=O)Nc2ccc3c(c2)Cc2cccc(-c4cc(=O)cc(N5CCOCC5)o4)c2S3)C[C@H](C)O1 + COc1cc2c(Oc3ccc(NC(=O)C4(C(=O)Nc5ccc(F)cc5)CC4)cc3F)ccnc2cc1OCCCN1CCOCC1 [Foretinib] (partner 0.25 µM)", 0.911],
  ["Clc1ccc(Nc2nnc(Cc3ccncc3)c3ccccc23)cc1 [Vatalanib] + Nc1nc2[nH]cc(CCc3ccc(C(=O)N[C@@H](CCC(=O)O)C(=O)O)cc3)c2c(=O)[nH]1 [Pemetrexed] (partner 0.2 µM)", 0.257],
  ["C[C@@H]1CN(CC(=O)Nc2ccc3c(c2)Cc2cccc(-c4cc(=O)cc(N5CCOCC5)o4)c2S3)C[C@H](C)O1 + Cc1nc(Nc2ncc(C(=O)Nc3c(C)cccc3Cl)s2)cc(N2CCN(CCO)CC2)n1 [Dasatinib] (partner 0.075 µM)", 0.62],
  ["COc1cc(N2CCC(C(N)=O)CC2)ccc1Nc1nc(N)c(Cl)c(Nc2ccccc2S(=O)(=O)C(C)C)n1 [HG-5-88-01] + NC(=O)Nc1cc(-c2cccc(F)c2)sc1C(=O)N[C@H]1CCCNC1 [AZD7762] (partner 0.2 µM)", 1.19],
  ["Clc1ccc(Nc2nnc(Cc3ccncc3)c3ccccc23)cc1 [Vatalanib] + Cc1nc(Nc2ncc(C(=O)Nc3c(C)cccc3Cl)s2)cc(N2CCN(CCO)CC2)n1 [Dasatinib] (partner 0.075 µM)", 0.573]
]}

Data provenance: the supplement of paper PMC10307832
